// data source = patent US6534516B1

target: human AR (Homo sapiens, UniProt P10275); construct: expressed in transfected cells; host or cells: CV-1 cells (African green monkey kidney fibroblasts); experiment: cell-based; assay type: cell-based; conditions: read-out: AR Agonist CV-1 Cells Potency
pEC50: −log10 of the molar value.
So basically: pEC50 at 7 or higher? That is True. Lower than 7? That is False.

Check the entry CCC1CCNc2c1cc1c(C(F)(F)F)cc(=O)[nH]c1c2[N+](=O)[O-] (racemic) : does pEC50 equal or exceed 7?
False

Check the entry CCC1CCN(C(=O)C(F)(F)F)c2cc3[nH]c(=O)cc(C(F)(F)F)c3cc21 (racemic) : does pEC50 equal or exceed 7?
True

Check the entry `CN1c2cc3c(cc2CCC1(C)C)c(C(F)(F)F)c(F)c(=O)n3C` : does pEC50 equal or exceed 7?
True

Check the entry `CCC1(CC)CCc2cc3c(C(F)(F)F)c(F)c(=O)[nH]c3cc2N1` : does pEC50 equal or exceed 7?
False

Check the entry CC1CC(C)(C)Nc2cc3[nH]c(=O)c(F)c(C(F)(F)F)c3cc21 (stereo not drawn) : does pEC50 equal or exceed 7?
True

Check the entry `CC1=CC(C)(C)Nc2cc3[nH]c(=O)c(F)c(C(F)(F)F)c3cc21` : does pEC50 equal or exceed 7?
False

Check the entry CCC1CCN(C(C)=O)c2cc3[nH]c(=O)cc(C(F)(F)F)c3cc21 (racemic) : does pEC50 equal or exceed 7?
True

###

Target: human AR (Homo sapiens, UniProt P10275)
Construct: expressed in transfected cells; host or cells: CV-1 cells (African green monkey kidney fibroblasts)
Sequence (P10275 1-920): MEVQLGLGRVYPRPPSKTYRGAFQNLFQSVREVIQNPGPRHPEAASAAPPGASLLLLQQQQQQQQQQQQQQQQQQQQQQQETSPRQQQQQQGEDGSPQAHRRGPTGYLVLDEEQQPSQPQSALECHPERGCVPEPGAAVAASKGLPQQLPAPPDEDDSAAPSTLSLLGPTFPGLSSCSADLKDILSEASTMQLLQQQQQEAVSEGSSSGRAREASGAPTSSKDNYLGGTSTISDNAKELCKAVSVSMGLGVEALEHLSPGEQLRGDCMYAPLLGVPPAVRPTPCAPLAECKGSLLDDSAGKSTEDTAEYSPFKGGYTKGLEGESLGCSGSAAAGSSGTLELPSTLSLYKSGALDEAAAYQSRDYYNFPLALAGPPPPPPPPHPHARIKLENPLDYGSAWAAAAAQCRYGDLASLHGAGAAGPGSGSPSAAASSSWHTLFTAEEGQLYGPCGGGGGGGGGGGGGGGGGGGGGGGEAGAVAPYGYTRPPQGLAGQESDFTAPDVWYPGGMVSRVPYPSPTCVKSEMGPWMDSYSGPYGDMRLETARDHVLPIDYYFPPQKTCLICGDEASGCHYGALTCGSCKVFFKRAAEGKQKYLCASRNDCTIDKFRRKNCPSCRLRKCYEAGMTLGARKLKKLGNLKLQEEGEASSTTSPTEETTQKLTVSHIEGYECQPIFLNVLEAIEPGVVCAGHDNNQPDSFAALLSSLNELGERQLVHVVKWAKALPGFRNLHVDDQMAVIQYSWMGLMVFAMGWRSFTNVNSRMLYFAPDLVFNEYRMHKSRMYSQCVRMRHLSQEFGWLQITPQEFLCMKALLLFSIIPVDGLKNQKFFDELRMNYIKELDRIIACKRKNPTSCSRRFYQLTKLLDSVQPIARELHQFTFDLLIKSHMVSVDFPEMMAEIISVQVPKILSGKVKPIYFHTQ
Experiment: cell-based
Type: cell-based
Consider the following molecules; for each one, report its IC50.
Your answer is read as µM, so omit the unit and give the number.

The recorded IC50 for entry CC12CCCN1c1cc3[nH]c(=O)cc(C(F)(F)F)c3cc1CC2 (racemic) equals 0.325

The recorded IC50 for entry `CC1(C)CCc2cc3c(C(F)(F)F)c([N+](=O)[O-])c(=O)[nH]c3c([N+](=O)[O-])c2N1` equals 5.24
